Data provenance: ChEMBL document CHEMBL1154167

System: Streptococcus pneumoniae
Assay: Antibacterial activity against multidrug-resistant Streptococcus pneumoniae 1175 harboring mefA gene by NCCLS method
Format: functional
OBSERVABLE: MIC (µg/mL)
One number for each entry, in µg/mL.

Solved entries (count: 2):
- RECORD SMILES: "CC[C@H]1OC(=O)[C@H](C)C(=O)[C@H](C)[C@@H](O[C@@H]2O[C@H](C)C[C@H](N(C)C)[C@H]2O)[C@](C)(O)C[C@@H](C)C(=O)[C@H](C)[C@H]2N(C3CN([C@@H](C)c4ccnc5ncccc45)C3)C(=O)O[C@]12C"
  OBSERVABLE: "MIC"
  UNIT ABBREVIATION: "µg/mL"
  NUMERIC RESULT: 0.25
- RECORD SMILES: "CC[C@H]1OC(=O)[C@H](C)[C@@H](O[C@H]2C[C@@](C)(OC)[C@@H](O)[C@H](C)O2)[C@H](C)[C@@H](O[C@@H]2O[C@H](C)C[C@H](N(C)C)[C@H]2O)[C@](C)(OC)C[C@@H](C)C(=O)[C@H](C)[C@@H](O)[C@]1(C)O"
  OBSERVABLE: "MIC"
  UNIT ABBREVIATION: "µg/mL"
  NUMERIC RESULT: 16

We next turn to a different compound, shown below.
Problem: // query MIC value for entry CC[C@H]1OC(=O)[C@H](C)C(=O)[C@H](C)[C@@H](O[C@@H]2O[C@H](C)C[C@H](N(C)C)[C@H]2O)[C@](C)(O)C[C@@H](C)C(=O)[C@H](C)[C@H]2N(C3CN(Cc4cccc5nc[nH]c45)C3)C(=O)O[C@]12C
Result: 0.5

---

Tested on: Haemophilus influenzae
Experiment: Antibacterial activity against multidrug-susceptible Haemophilus influenzae 1325 by NCCLS method
Format: functional
Would you kindly list MIC for each of these compounds?
Numbers only, in µg/mL.

- RECORD SMILES: "CC[C@H]1OC(=O)[C@H](C)C(=O)[C@H](C)[C@@H](O[C@@H]2O[C@H](C)C[C@H](N(C)C)[C@H]2O)[C@](C)(O)C[C@@H](C)C(=O)[C@H](C)[C@H]2N(C3CN(Cc4c(O)cnc5ncccc45)C3)C(=O)O[C@]12C"
  ASSAY SYSTEM: "Haemophilus influenzae"
  NUMERIC RESULT: 4

Problem: # value lookup — system Haemophilus influenzae, readout MIC, item CC[C@H]1OC(=O)[C@H](C)C(=O)[C@H](C)[C@@H](O[C@@H]2O[C@H](C)C[C@H](N(C)C)[C@H]2O)[C@](C)(O)C[C@@H](C)C(=O)[C@H](C)[C@H]2N(C3CN(Cc4ccnc5ncccc45)C3)C(=O)O[C@]12C
Result: 4

---

Test system: Haemophilus influenzae
Test: Antibacterial activity against multidrug-susceptible Haemophilus influenzae 1325 by NCCLS method
Assay type: functional
OBSERVABLE: MIC (µg/mL)
Give bare numbers, in µg/mL.

Solved entries (count: 5):
- RECORD SMILES: "CC[C@H]1OC(=O)[C@H](C)[C@@H](O[C@H]2C[C@@](C)(OC)[C@@H](O)[C@H](C)O2)[C@H](C)[C@@H](O[C@@H]2O[C@H](C)C[C@H](N(C)C)[C@H]2O)[C@](C)(OC)C[C@@H](C)C(=O)[C@H](C)[C@@H](O)[C@]1(C)O"
  MIC / µg/mL: 16
- RECORD SMILES: "CC[C@H]1OC(=O)[C@H](C)C(=O)[C@H](C)[C@@H](O[C@@H]2O[C@H](C)C[C@H](N(C)C)[C@H]2O)[C@](C)(O)C[C@@H](C)C(=O)[C@H](C)[C@H]2N(C3CN(Cc4ccnc5cccnc45)C3)C(=O)O[C@]12C"
  MIC / µg/mL: 8
- RECORD SMILES: "CC[C@H]1OC(=O)[C@H](C)C(=O)[C@H](C)[C@@H](O[C@@H]2O[C@H](C)C[C@H](N(C)C)[C@H]2O)[C@](C)(O)C[C@@H](C)C(=O)[C@H](C)[C@H]2N(C3CN([C@H](C)c4ccnc5ncccc45)C3)C(=O)O[C@]12C"
  MIC / µg/mL: 4
- RECORD SMILES: "CC[C@H]1OC(=O)[C@H](C)C(=O)[C@H](C)[C@@H](O[C@@H]2O[C@H](C)C[C@H](N(C)C)[C@H]2O)[C@](C)(O)C[C@@H](C)C(=O)[C@H](C)[C@H]2N(C3CN(Cc4c(O)cnc5cccnc45)C3)C(=O)O[C@]12C"
  MIC / µg/mL: 4
- RECORD SMILES: "CC[C@H]1OC(=O)[C@H](C)C(=O)[C@H](C)[C@@H](O[C@@H]2O[C@H](C)C[C@H](N(C)C)[C@H]2O)[C@](C)(O)C[C@@H](C)C(=O)[C@H](C)[C@H]2N(C3CN(Cc4c(OC)cnc5ncccc45)C3)C(=O)O[C@]12C"
  MIC / µg/mL: 8

Hi team, please reply with MIC for each item in this list.
1. CC[C@H]1OC(=O)[C@H](C)C(=O)[C@H](C)[C@@H](O[C@@H]2O[C@H](C)C[C@H](N(C)C)[C@H]2O)[C@](C)(OC)C[C@@H](C)C(=O)[C@H](C)[C@H]2N(CCCCn3cnc(-c4cccnc4)c3)C(=O)O[C@]12C
2. CC[C@H]1OC(=O)[C@H](C)C(=O)[C@H](C)[C@@H](O[C@@H]2O[C@H](C)C[C@H](N(C)C)[C@H]2O)[C@](C)(O)C[C@@H](C)C(=O)[C@H](C)[C@H]2N(C3CN(Cc4cccc5nc[nH]c45)C3)C(=O)O[C@]12C
3. CC[C@H]1OC(=O)[C@H](C)C(=O)[C@H](C)[C@@H](O[C@@H]2O[C@H](C)C[C@H](N(C)C)[C@H]2O)[C@](C)(O)C[C@@H](C)C(=O)[C@H](C)[C@H]2N(C3CN([C@@H](C)c4ccnc5ncccc45)C3)C(=O)O[C@]12C

Result:
1. 4
2. 8
3. 16
